- Experimental target: FXR (Homo sapiens (Human))
- Test description: transient human FXR/Gal4-luciferase reporter assay
- Format: cell-based
- Condition set: Gal4-hFXR fusion construct, HEK293 reporter cells; response relative to 8 μM GW-4064
EC50 under 90 nM gets 1.0, anything at or over 90 nM gets 0.0.

Below are worked cases with known answers.
- Structure string: "CC(C)(C)c1nc(C23CCC(CN(C(=O)C45CC(F)(C4)C5)c4cccc(-c5ccc6[nH]c(=O)oc6c5)c4)(CC2)CC3)no1"
  Experimental target: "FXR (Homo sapiens (Human))"
  Classification: 1.0
- Structure string: "O=C(N(CC12CCC(c3nc(C4CC4)no3)(CC1)CC2)c1cccc(-c2ccc3c(c2)OC(F)(F)O3)c1)C12CC(F)(C1)C2"
  Experimental target: "FXR (Homo sapiens (Human))"
  Classification: 0.0
- Structure string: "Cc1nc2ncc(-c3cccc(N(CC45CCC(c6nc(C(C)(C)C)no6)(CC4)CC5)C(=O)C45CC(F)(C4)C5)c3)cc2s1"
  Experimental target: "FXR (Homo sapiens (Human))"
  Classification: 1.0

Lookup: Just wondering, is EC50 of COc1cnc(-c2cccc(N(CC34CCC(c5noc(C(C)(C)C)n5)(CC3)CC4)C(=O)C34CC(F)(C3)C4)c2)nc1 below 90 nM?
Found: 1.0

Lookup: Now this one: CC(C)(C)c1nc(C23CCC(CN(C(=O)C45CC(F)(C4)C5)c4cccc(-c5cnc(C(F)(F)F)nc5)c4)(CC2)CC3)no1
Found: 0.0

Lookup: Let us now turn to CC(C)(F)c1nc(C23CCC(CN(C(=O)C45CC(F)(C4)C5)c4cccc(-c5cn[nH]c(=O)c5)c4)(CC2)CC3)no1
Found: 0.0

---

- Experimental target: FXR (Homo sapiens (Human))
- Test description: transient human FXR/Gal4-luciferase reporter assay
- Format: cell-based
- Condition set: Gal4-hFXR fusion construct, HEK293 reporter cells; response relative to 8 μM GW-4064
Recorded EC50 values for a group of compounds are listed next.
Number in nM, nothing else.

# count of solved cases: 2
- Compound: "CC(C)(C)c1noc(C23CCC(CN(C(=O)C45CC(F)(C4)C5)c4cccc(-c5ccc(NS(C)(=O)=O)cc5)c4)(CC2)CC3)n1 [Example 361]"
  EC50 / nM: 843
- Compound: "CCOc1ccc(-c2cncc(N(CC34CCC(c5nc(C6CC6)no5)(CC3)CC4)C(=O)C34CC(F)(C3)C4)c2)cn1 [Example 426]"
  EC50 / nM: 417

// moving on: another record for EC50
Lookup: Field request: EC50 | item: CC(C)(O)c1ccc(-c2nccc(N(CC34CCC(c5noc(C(C)(C)F)n5)(CC3)CC4)C(=O)OC(C)(C)C(F)(F)F)n2)cc1 [Example 635]
Found: 1280

---

- Experimental target: FXR (Homo sapiens (Human), UniProt Q96RI1)
- Sequence (Q96RI1 262-486): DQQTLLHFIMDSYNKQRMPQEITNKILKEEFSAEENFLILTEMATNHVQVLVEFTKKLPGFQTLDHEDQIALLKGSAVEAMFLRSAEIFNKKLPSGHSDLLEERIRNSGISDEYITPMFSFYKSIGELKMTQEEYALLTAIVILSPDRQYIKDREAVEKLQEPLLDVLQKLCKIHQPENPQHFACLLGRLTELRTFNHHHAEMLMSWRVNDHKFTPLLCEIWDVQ
- Test description: transient human FXR/Gal4-luciferase reporter assay
- Format: cell-based
- Condition set: Gal4-hFXR fusion construct, HEK293 reporter cells; response relative to 8 μM GW-4064
Overview of recorded pEC50 for various molecules
Schema: pEC50 number; meaning minus log10 of the concentration expressed in molar units.

- Molecule: "CC(C)(O)c1ccc(-c2cccc(N(C[C@]34CC[C@](c5noc(C(C)(C)F)n5)(CC3)CC4)C(=O)C3CC(O)(C(F)(F)F)C3)c2)cc1 (stereo partly shown)"
  pEC50: 7.72
- Molecule: "CC(C)(O)c1ccc(-c2cccc(N(CC34CCC(c5noc(C(C)(F)F)n5)(CC3)CC4)C(=O)C34CC(C#N)(C3)C4)c2)cc1"
  pEC50: 7.74
- Molecule: "O=C(N(CC12CCC(c3nc(C4CC4)no3)(CC1)CC2)c1cccc(-c2cnc3nc(C4CC4)sc3c2)c1)C12CC(F)(C1)C2"
  pEC50: 7.11

Lookup: Quick check: pEC50 on FXR (Homo sapiens (Human), UniProt Q96RI1), item Cc1nc2ccc(-c3cccc(N(CC45CCC(c6nc(C7CC7)no6)(CC4)CC5)C(=O)C4CC(F)(F)C4)c3)cc2s1 ?
Found: 6.63

Lookup: Now try CS(=O)(=O)Nc1ncc(-c2cccc(N(CC34CCC(c5nc(C6CC6)no5)(CC3)CC4)C(=O)C34CC(F)(C3)C4)c2)cn1 .
Found: 6.25

Lookup: And for COc1ncc(-c2cccc(N(CC34CCC(c5nnc(C6CC6)o5)(CC3)CC4)C(=O)C34CC(F)(C3)C4)c2)cn1 ?
Found: 6.54

Lookup: Now the molecule CC(C)Oc1ccc(-c2cc(N(CC34CCC(c5noc(C6(F)CC6)n5)(CC3)CC4)C(=O)[C@H]3C[C@](O)(C(F)(F)F)C3)ccc2F)cc1
Found: 7.13

Lookup: Please give the result for O=C(C1CC(O)(C(F)(F)F)C1)N(CC12CCC(C(=O)NS(=O)(=O)C3CC3)(CC1)CC2)c1cccc(-c2ccc(OC(F)F)cc2)c1 (stereo not shown) too.
Found: 5.70

Lookup: // query: O=C(NC12CCC(CN(C(=O)C3CC(O)(C(F)(F)F)C3)c3cccc(-c4ccc(OC(F)F)cc4)c3)(CC1)CC2)c1ccc(F)cc1 (stereo not shown)
Found: 6.42

Lookup: Thanks! And CCOc1ncc(-c2cc(N(CC34CCC(c5noc(C(C)(C)C)n5)(CC3)CC4)C(=O)C34CC(F)(C3)C4)ccn2)cn1 ?
Found: 6.49

Lookup: Now the molecule CC(C)(C)c1noc(C23CCC(CN(C(=O)C45CC(F)(C4)C5)c4cccc(-c5ccc(OC(F)F)cn5)c4)(CC2)CC3)n1
Found: 7.06

Lookup: Likewise for O=C(N(CC12CCC(c3nc(C(F)F)no3)(CC1)CC2)c1cccc(-c2cnc(C3CC3)nc2)c1)C12CC(F)(C1)C2 ?
Found: 6.46

Lookup: And for CC(C)(O)c1ccc(-c2cccc(N(CC34CCC(c5noc(C(C)(C)F)n5)(CC3)CC4)C(=O)[C@H]3C[C@](O)(C(F)(F)F)C3)n2)cc1 ?
Found: 7.19

Lookup: Repeat for the following molecule: CC(C)(OC(=O)N(CC12CCC(c3nc(C4CC4)no3)(CC1)CC2)c1nccc(C23CCC(C#N)(CC2)CC3)n1)C(F)(F)F
Found: 5.70

Lookup: Also check COc1ncc(-c2cccc(N(CC34CCC(c5noc(C6(C)CC6)n5)(CC3)CC4)C(=O)C34CC(F)(C3)C4)c2)cn1
Found: 7.29

Lookup: Field entry: O=C(N(CC12CCC(c3nc(C4CC4)no3)(CC1)CC2)c1cccc(-c2nc(Cl)nn3cccc23)c1)C12CC(F)(C1)C2
Found: 6.04

Lookup: Further, for CC(C)(O)c1ccc(-c2ccnc(N(CC34CCC(c5ccc(C(C)(F)F)cn5)(CC3)CC4)C(=O)OC(C)(C)C(F)(F)F)c2)nc1 ?
Found: 7.02

Lookup: Ok, now CC(C)(C#N)Oc1ccc(-c2cccc(N(CC34CCC(c5noc(C6(F)CC6)n5)(CC3)CC4)C(=O)C3CC(O)(C(F)(F)F)C3)c2)cc1 (stereo not shown)
Found: 7.31

---

- Experimental target: FXR (Homo sapiens (Human))
- Test description: transient human FXR/Gal4-luciferase reporter assay
- Format: cell-based
Result type: pEC50
For clarity, pEC50 is expressed as the negative log10 of concentration in mol/L.

Some compounds with known pEC50 results, for comparison:
- Compound: "CC(C)(C)c1nc(C23CCC(CN(C(=O)C4CC(O)(C(F)(F)F)C4)c4cccc(-c5ccc(OC(F)F)cc5)c4)(CC2)CC3)no1 (stereo not drawn) [Example 516]"
  pEC50: 7.03
- Compound: "CCOc1ncc(-c2cccc(N(CC34CCC(c5noc(C(C)(F)F)n5)(CC3)CC4)C(=O)C34CC(F)(C3)C4)c2)cn1 [Example 529]"
  pEC50: 6.97

Now, please, on to the next compound.
Lookup: Which pEC50 value belongs to CS(=O)(=O)Nc1ccc(-c2cccc(N(CC34CCC(c5nc(C(F)F)no5)(CC3)CC4)C(=O)C34CC(F)(C3)C4)c2)cc1 [Example 469] ?
Found: 6.18

---

The reader will find reported pEC50 values listed item by item below.
- Experimental target: FXR (Homo sapiens (Human), UniProt Q96RI1)
- Test description: transient human FXR/Gal4-luciferase reporter assay
- Assay type: cell-based
- Condition set: Gal4-hFXR fusion construct, HEK293 reporter cells; response relative to 8 μM GW-4064
Answer as the number alone; pEC50 is minus log10 of concentration in mol/L.

- Structure string: "CC(C)(O)c1ccc(-c2ccnc(N(CC34CCC(c5noc(C(C)(F)F)n5)(CC3)CC4)C(=O)OC(C)(C)C(F)(F)F)c2)cc1"
  pEC50: 7.52
- Structure string: "COc1ncc(-c2cccc(N(CC34CCC(c5ccc(C6(C#N)CC6)cc5)(CC3)OC4)C(=O)C34CC(F)(C3)C4)c2)cn1"
  pEC50: 6.58

Lookup: Please look up its pEC50: CC(C)Oc1ccc(-c2cccc(N(CC34CCC(c5cc(C(C)(F)F)n(C)n5)(CC3)CC4)C(=O)OC(C)(C)C(F)(F)F)c2)cc1
Found: 6.04
